These entries and their values trace back to the supplement of paper PMC10065799.

A collection of sequences and their measured phosphorylation enrichment
target: Hck (UniProt P08631); experiment: phosphorylation enrichment, bacterial display (enrichment ratio); higher = better substrate or ligand; peptides without Tyr show the background;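 also: 11-residue human phosphosite peptides and single-mutation variants displayed on the E. coli surface, counted by deep sequencing, each peptide's frequency after selection divided by its frequency in the unselected input library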;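 also: frequency after pTyr selection over input frequency; kinase dosed for 20-30% of maximal phosphorylation in three min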
Sequence (P08631 whole entry, looked up): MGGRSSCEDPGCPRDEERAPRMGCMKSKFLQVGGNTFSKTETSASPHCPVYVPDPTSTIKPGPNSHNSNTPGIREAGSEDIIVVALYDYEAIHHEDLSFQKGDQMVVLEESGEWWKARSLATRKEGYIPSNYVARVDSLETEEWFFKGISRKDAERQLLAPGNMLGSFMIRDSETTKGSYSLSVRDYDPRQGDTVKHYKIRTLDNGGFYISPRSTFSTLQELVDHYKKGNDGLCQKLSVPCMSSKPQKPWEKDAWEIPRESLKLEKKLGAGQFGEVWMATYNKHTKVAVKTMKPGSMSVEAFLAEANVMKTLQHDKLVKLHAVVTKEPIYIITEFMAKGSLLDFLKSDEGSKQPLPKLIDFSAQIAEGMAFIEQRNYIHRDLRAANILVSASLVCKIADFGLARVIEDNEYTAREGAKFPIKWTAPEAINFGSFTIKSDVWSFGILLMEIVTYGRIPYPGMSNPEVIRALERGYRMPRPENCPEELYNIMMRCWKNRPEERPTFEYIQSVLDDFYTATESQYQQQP
Field format: numeric only.

Example sequences with recorded phosphorylation enrichment:
{"Residue string": "ESPGLYGFLNV [BCR_Y910]", "Measured target": "Hck (UniProt P08631)", "Measured value": 2.24}
{"Residue string": "ITNLLYHVVSW [GBA_Y412_G416S]", "Measured target": "Hck (UniProt P08631)", "Measured value": 4.84}
{"Residue string": "SSEFHCVGGFF [CTSC_Y347_Y347C_YF]", "Measured target": "Hck (UniProt P08631)", "Measured value": 0.499}
{"Residue string": "AHAGKYGAEAL [HBA1_Y25_E24K]", "Measured target": "Hck (UniProt P08631)", "Measured value": 0.368}
{"Residue string": "MALDIYRASYY [ALK_Y1278_R1275L]", "Measured target": "Hck (UniProt P08631)", "Measured value": 1.57}
{"Residue string": "DHAGEYGAEAL [HBA1_Y25_A20D]", "Measured target": "Hck (UniProt P08631)", "Measured value": 0.495}

I would be grateful if you could share the reported phosphorylation enrichment for LLVVLYKYRCF [PSEN1_Y154_Y159F] .
0.825

Which phosphorylation enrichment value is on record for NACGLYHKMNG [GATA5_Y216] ?
0.533

# phosphorylation enrichment lookup, item LKDEDYLKDTV [HAUS3_Y582_I586T]
1.67

Any idea what its phosphorylation enrichment is? The sequence is EVDETYVPKEF [ALB_Y521]
0.668
